Molecular target: IL33 and ST2 binding (Homo sapiens, UniProt O95760)
Sequence (O95760 112-270 limits assumed): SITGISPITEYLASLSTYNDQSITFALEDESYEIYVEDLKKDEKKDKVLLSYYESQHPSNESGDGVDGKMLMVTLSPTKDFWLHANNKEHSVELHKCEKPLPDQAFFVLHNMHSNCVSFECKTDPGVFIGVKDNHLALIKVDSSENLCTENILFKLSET
Conditions: 30 µM
Each entry below carries its recorded inhibition.
Number in %, nothing else.

>>> resultnumber("CCNC(=O)c1nc(-c2cc(F)cc(F)c2)oc1-c1ccccc1")
-29
>>> resultnumber("O=C(NCc1ccncc1)c1nc(-c2ccc(C(F)(F)F)cc2)oc1-c1ccccc1[N+](=O)[O-]")
-11
>>> resultnumber("CN(C)CCNC(=O)c1nc(-c2ccc(F)cc2)oc1-c1ccc([N+](=O)[O-])cc1")
-54
>>> resultnumber("CN1CCN(CCNC(=O)c2nc(-c3ccc(F)c(F)c3)oc2-c2ccccc2)CC1")
-9

Asked: For IL33 and ST2 binding (Homo sapiens, UniProt O95760), give the measured inhibition of the entry CN1CCN(CCNC(=O)c2nc(-c3ccc(C(C)(C)C)cc3)oc2-c2ccccc2[N+](=O)[O-])CC1
Given back: 33

Asked: Enter recorded inhibition with IL33 and ST2 binding (Homo sapiens, UniProt O95760) for COc1ccc(CNC(=O)c2nc(-c3ccc(C(F)(F)F)cc3)oc2-c2ccccc2[N+](=O)[O-])cc1 here.
Given back: 14

Asked: Report inhibition from IL33 and ST2 binding (Homo sapiens, UniProt O95760) testing of CN(C)CCNC(=O)c1nc(-c2ccccc2C(F)(F)F)oc1-c1ccccc1
Given back: 4

Asked: For IL33 and ST2 binding (Homo sapiens, UniProt O95760), give the measured inhibition of the entry O=C(c1ccc(N2CCCCC2)cc1)c1nc(-c2ccc(C(F)(F)F)cc2)oc1-c1ccccc1[N+](=O)[O-]
Given back: 3

Asked: Quote inhibition with test system IL33 and ST2 binding (Homo sapiens, UniProt O95760) for CN1CCN(CCNC(=O)c2nc(-c3ccc([N+](=O)[O-])cc3)oc2-c2ccccc2)CC1;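 also: plate ELISA with coated Flag-tagged human IL-33 and His-tagged human ST2, bound ST2 detected by anti-His HRP and TMB absorbance at 450 nm, 2 h compound incubation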
Given back: 2

Asked: Report measured inhibition on IL33 and ST2 binding (Homo sapiens, UniProt O95760); entry: CCNC(=O)c1nc(-c2ccc(C(F)(F)F)cc2)oc1-c1cccnc1
Given back: 106

Asked: For IL33 and ST2 binding (Homo sapiens, UniProt O95760), give the measured inhibition of the entry CSc1ccc(-c2nc(C(=O)NCCN(C)C)c(-c3ccccc3[N+](=O)[O-])o2)cc1
Given back: -25

Asked: Give inhibition only, for CN(C)CCNC(=O)c1nc(-c2ccc(C(F)(F)F)cc2)oc1-c1ccccc1 , using IL33 and ST2 binding (Homo sapiens, UniProt O95760) data.
Given back: -14

Asked: Look up and report measured inhibition (IL33 and ST2 binding (Homo sapiens, UniProt O95760)) for the following compound: CN1CCN(CCNC(=O)c2nc(-c3ccc(C4CC4)cc3)oc2-c2ccccc2)CC1
Given back: 2

Asked: Provide IL33 and ST2 binding (Homo sapiens, UniProt O95760) inhibition reading for CC(C)N1CCN(C(=O)c2nc(-c3ccc(C(F)(F)F)cc3)oc2-c2ccccc2[N+](=O)[O-])CC1 .
Given back: 12
